# Study target: Cytochrome P450 2C19 (Homo sapiens, UniProt P33261)
# Sequence (P33261 whole entry): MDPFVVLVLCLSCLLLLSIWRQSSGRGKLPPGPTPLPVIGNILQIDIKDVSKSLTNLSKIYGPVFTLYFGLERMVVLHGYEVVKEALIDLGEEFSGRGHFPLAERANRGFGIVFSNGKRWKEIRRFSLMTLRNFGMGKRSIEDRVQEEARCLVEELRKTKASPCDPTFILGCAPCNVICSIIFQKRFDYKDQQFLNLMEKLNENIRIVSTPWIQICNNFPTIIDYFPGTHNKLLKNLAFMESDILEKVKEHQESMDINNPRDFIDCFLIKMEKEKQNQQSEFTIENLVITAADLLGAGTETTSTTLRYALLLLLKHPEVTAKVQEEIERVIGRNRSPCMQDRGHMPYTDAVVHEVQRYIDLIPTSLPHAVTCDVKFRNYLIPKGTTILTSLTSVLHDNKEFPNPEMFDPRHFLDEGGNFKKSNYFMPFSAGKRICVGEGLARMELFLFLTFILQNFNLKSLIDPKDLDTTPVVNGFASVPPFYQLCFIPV
# Procedure details: Inhibition of CYP2C19 in human liver microsomes using (S)-mephenytoin as substrate in presence of NADPH by LC-MS/MS analysis
# Assay type: ADME, Microsome
The reader will find reported IC50 values listed item by item below.
Measured endpoint: IC50

> print(dat)
                                        mol  measured.endpoint   result
1  CCn1c(CNC(=O)c2nc(Cl)cnc2N)[n+](CC)c2ccc(OCC(=O)NCCOCP(C)(C)=O)cc21               IC50  > 50 µM
2  CCn1c(CNC(=O)c2nc(Cl)cnc2N)[n+](CC)c2ccc(C(=O)N(C)CCN(C)C)cc21               IC50  > 50 µM

====

# Study target: Cytochrome P450 1A2 (Homo sapiens, UniProt P05177)
# Sequence (P05177 whole entry): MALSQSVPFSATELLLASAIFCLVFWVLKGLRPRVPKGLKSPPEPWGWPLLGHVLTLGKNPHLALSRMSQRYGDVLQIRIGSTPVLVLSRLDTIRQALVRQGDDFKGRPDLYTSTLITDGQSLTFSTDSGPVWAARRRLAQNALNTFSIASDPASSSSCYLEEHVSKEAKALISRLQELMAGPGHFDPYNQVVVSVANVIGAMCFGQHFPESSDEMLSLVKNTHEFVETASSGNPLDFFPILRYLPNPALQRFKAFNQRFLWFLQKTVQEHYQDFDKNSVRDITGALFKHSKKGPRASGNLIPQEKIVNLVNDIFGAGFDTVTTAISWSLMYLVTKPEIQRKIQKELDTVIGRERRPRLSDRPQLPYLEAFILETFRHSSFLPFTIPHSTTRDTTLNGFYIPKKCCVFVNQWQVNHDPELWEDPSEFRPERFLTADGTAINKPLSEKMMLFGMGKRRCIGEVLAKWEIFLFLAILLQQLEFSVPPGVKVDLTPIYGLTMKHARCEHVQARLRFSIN
Measured endpoint: IC50

> print(dat)
                                        mol   result
1  CCn1c(CNC(=O)c2nc(Cl)cnc2N)[n+](CC)c2ccc(C(=O)N(C)CCN(C)C)cc21  > 50 µM

====

# Study target: CaV3.1 (Homo sapiens, UniProt O43497)
# Sequence (O43497 whole entry): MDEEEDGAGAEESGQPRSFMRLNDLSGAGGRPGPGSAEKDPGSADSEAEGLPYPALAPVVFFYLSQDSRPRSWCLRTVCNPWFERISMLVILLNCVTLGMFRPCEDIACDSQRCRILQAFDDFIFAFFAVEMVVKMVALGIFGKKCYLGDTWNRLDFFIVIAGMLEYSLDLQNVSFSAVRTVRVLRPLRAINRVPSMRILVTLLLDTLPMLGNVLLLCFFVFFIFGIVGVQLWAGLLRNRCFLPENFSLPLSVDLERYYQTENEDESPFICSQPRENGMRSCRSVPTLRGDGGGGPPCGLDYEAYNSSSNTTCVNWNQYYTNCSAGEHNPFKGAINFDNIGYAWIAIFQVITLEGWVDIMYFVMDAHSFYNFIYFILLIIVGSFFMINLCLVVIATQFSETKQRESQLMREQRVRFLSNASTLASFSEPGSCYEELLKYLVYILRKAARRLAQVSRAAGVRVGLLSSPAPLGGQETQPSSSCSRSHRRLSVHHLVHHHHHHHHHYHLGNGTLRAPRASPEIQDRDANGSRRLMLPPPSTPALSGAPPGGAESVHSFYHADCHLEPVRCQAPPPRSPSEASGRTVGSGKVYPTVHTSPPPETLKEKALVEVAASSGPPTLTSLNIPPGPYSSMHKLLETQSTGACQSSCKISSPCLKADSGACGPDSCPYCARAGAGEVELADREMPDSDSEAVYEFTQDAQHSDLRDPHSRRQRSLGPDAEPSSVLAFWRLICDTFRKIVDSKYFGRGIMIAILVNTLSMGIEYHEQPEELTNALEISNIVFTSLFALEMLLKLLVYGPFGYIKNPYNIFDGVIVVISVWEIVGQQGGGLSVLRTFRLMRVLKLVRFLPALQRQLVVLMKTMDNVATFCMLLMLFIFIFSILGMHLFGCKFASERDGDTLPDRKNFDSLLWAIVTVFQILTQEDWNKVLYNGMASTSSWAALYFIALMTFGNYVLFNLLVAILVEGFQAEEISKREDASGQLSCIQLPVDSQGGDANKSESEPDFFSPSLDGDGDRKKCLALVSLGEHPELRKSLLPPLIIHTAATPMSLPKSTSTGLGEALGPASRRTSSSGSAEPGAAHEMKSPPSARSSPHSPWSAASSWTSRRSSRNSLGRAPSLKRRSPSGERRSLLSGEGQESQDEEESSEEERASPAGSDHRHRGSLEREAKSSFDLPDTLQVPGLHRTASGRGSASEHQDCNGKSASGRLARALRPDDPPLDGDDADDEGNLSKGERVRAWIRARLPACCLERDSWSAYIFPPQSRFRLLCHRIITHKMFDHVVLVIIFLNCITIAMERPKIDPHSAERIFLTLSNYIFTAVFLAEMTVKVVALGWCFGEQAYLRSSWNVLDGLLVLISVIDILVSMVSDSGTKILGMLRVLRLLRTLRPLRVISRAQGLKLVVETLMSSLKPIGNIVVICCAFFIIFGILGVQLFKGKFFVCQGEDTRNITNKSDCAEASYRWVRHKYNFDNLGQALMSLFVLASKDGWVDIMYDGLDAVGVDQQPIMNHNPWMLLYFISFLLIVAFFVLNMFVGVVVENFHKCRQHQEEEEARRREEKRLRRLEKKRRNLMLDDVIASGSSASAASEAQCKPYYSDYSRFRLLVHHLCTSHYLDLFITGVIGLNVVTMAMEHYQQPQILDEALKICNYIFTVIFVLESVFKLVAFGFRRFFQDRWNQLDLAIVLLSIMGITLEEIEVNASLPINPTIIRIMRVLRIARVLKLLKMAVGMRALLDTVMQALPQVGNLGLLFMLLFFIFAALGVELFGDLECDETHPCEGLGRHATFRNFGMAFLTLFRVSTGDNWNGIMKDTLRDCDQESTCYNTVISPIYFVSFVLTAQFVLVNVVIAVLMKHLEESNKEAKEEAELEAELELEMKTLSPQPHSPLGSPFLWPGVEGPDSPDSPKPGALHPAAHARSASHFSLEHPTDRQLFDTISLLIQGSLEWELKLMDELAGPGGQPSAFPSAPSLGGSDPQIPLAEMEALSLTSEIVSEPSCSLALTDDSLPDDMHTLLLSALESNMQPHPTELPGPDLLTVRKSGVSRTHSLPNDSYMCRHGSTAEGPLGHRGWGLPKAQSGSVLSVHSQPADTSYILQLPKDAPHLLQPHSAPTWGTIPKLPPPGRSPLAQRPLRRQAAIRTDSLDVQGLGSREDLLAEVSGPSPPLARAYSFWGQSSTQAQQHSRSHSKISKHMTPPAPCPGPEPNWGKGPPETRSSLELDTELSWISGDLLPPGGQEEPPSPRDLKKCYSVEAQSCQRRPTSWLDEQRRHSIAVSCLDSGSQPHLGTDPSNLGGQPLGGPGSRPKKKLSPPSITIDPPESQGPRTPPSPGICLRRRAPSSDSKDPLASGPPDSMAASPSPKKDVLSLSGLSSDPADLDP
# Procedure details: Inhibition of CaV3.1 (unknown origin) at 10 uM relative to control
# Assay type: toxicity
Measured endpoint: inhibition at 10 µM

> print(dat)
                                        mol                           study.target  result
1  CCn1c(CNC(=O)c2nc(Cl)cnc2N)[n+](CC)c2ccc(OCC(=O)NCCOCP(C)(C)=O)cc21  CaV3.1 (Homo sapiens, UniProt O43497)   < 50%

====

# Procedure details: Permeability of compound by PAMPA assay
# Type: ADME
# Measurement context: read-out: permeability
Measured endpoint: Papp

> print(dat)
                                        mol             result
1  CCn1c(CNC(=O)c2nc(Cl)cnc2N)[n+](CC)c2ccc(OCC(=O)NCCOCP(C)(C)=O)cc21  < 0.05 ×10⁻⁶ cm/s
2  CCn1c(CNC(=O)c2nc(Cl)cnc2N)[n+](CC)c2ccc(C(=O)N(C)CCN(C)C)cc21  < 0.02 ×10⁻⁶ cm/s
